Target: LKB1 (Homo sapiens (Human))
Sequence (Q15831 whole entry): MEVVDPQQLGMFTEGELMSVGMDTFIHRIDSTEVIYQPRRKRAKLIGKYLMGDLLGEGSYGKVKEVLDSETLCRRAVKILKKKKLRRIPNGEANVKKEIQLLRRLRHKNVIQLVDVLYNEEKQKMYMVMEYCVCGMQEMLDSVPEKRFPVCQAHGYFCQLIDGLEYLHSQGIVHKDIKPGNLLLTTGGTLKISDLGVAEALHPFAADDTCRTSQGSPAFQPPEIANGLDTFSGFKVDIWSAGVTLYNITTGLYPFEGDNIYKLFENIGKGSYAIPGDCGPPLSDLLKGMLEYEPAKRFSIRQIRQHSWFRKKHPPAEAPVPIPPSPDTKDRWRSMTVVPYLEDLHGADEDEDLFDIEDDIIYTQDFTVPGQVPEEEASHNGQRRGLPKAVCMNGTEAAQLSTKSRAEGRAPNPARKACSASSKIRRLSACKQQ
Sequence (Q7RTN6 whole entry partner): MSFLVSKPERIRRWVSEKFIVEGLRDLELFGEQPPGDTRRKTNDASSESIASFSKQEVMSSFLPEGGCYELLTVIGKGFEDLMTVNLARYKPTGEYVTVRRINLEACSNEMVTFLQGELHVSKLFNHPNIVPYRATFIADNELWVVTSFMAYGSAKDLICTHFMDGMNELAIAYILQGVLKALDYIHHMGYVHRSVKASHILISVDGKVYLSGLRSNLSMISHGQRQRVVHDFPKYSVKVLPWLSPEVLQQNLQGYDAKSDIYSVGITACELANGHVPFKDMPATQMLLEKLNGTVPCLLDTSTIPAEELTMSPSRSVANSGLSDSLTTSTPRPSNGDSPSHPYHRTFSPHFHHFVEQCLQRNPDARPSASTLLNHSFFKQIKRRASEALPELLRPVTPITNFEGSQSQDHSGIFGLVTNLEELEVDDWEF
Sequence (Q9Y376 whole entry partner): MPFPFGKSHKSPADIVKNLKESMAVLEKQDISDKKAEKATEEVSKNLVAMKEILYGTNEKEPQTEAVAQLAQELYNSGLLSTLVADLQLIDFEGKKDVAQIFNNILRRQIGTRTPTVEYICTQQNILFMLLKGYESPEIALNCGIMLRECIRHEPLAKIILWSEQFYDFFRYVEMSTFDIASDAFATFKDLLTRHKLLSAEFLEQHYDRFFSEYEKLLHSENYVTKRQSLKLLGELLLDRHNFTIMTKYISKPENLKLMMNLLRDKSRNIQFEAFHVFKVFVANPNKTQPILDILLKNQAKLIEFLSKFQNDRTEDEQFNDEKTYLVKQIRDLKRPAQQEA
Assay: KinaseProfiler off-target kinase profiling
Assay type: biochemical
Conditions: 10 μM, ATP near Km
metricName: Avg. POC (POC)

{"compound": "Cc1c(-c2cnn(C)c2)nn(-c2ccccc2)c1NC(=O)NC1CCOc2cc(F)ccc21 (stereo not shown)", "systemTested": "LKB1 (Homo sapiens (Human))", "metricName": "Avg. POC", "unitText": "POC", "readoutNumber": 91}
{"compound": "Cc1c(-c2cnn(C)c2)nn(-c2ccccc2)c1NC(=O)N[C@H]1CCCc2ccccc21", "systemTested": "LKB1 (Homo sapiens (Human))", "metricName": "Avg. POC", "unitText": "POC", "readoutNumber": 103.5}
{"compound": "COCc1ccc2c(c1)C(NC(=O)Nc1c(C)c(-c3cnn(C)c3)nn1-c1ccccc1)COC2 (stereo not shown)", "systemTested": "LKB1 (Homo sapiens (Human))", "metricName": "Avg. POC", "unitText": "POC", "readoutNumber": 100}
{"compound": "Cc1c(-c2ccc(=O)n(C)c2)nn(-c2ccccc2)c1NC(=O)NC1CN(CC(F)(F)F)Cc2ccccc21 (stereo not shown)", "systemTested": "LKB1 (Homo sapiens (Human))", "metricName": "Avg. POC", "unitText": "POC", "readoutNumber": 95}

* * *

Biological target: MSK2 (Homo sapiens (Human))
Experiment: KinaseProfiler off-target kinase profiling
Format: biochemical
Conditions: 10 μM, ATP near Km
metricName: Avg. POC (POC)

{"compound": "Cc1c(-c2ccc(=O)n(C)c2)nn(-c2ccccc2)c1NC(=O)NC1CN(CC(F)(F)F)Cc2ccccc21 (stereo not shown)", "systemTested": "MSK2 (Homo sapiens (Human))", "unitText": "POC", "readoutNumber": 107.5}
{"compound": "Cc1c(-c2cnn(C)c2)nn(-c2ccccc2)c1NC(=O)N[C@H]1CCCc2ccccc21", "systemTested": "MSK2 (Homo sapiens (Human))", "unitText": "POC", "readoutNumber": 112}
{"compound": "Cc1c(-c2cnn(C)c2)nn(-c2ccccc2)c1NC(=O)NC1CCOc2cc(F)ccc21 (stereo not shown)", "systemTested": "MSK2 (Homo sapiens (Human))", "unitText": "POC", "readoutNumber": 127}
{"compound": "COCc1ccc2c(c1)C(NC(=O)Nc1c(C)c(-c3cnn(C)c3)nn1-c1ccccc1)COC2 (stereo not shown)", "systemTested": "MSK2 (Homo sapiens (Human))", "unitText": "POC", "readoutNumber": 99.5}

* * *

Biological target: His-tagged recombinant human TrkA (Homo sapiens (Human))
Sequence (P04629 440-796): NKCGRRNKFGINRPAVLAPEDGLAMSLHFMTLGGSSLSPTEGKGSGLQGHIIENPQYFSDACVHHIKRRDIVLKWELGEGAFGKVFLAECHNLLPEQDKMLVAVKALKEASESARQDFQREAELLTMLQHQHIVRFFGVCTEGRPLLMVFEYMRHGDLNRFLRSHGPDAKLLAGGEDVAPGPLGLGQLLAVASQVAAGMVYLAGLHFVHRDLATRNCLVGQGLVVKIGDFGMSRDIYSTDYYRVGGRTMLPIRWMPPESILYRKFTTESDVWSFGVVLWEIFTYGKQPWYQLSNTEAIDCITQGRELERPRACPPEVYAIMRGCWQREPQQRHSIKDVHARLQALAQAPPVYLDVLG
Test: TrkA LanthaScreen Eu Kinase Binding Assay
Conditions: averaged IC50; TR-FRET binding, 60 min, 22° C.; read-out: TrkA Enzyme IC50
metricName: IC50

Solved entries (count: 3):
{"molecule": "COCCN1CCc2ccccc2C(NC(=O)Nc2c(C)c(-c3cnn(C)c3)nn2-c2ccccc2)C1 (stereo not shown)", "IC50": "100 to 1000 nM"}
{"molecule": "CCCN1CCc2ccccc2C(NC(=O)Nc2c(C)c(-c3cnn(C)c3)nn2-c2ccccc2)C1 (stereo not shown)", "IC50": "100 to 1000 nM"}
{"molecule": "COCCN1Cc2ccccc2C(NC(=O)Nc2c3c(nn2-c2ccccc2)CCC3)C1 (stereo not shown)", "IC50": "100 to 1000 nM"}

Moving on to another molecule below.
Record CNC(=O)c1nn(-c2ccccc2)c(NC(=O)NC2CN(CC(F)(F)F)Cc3ccccc32)c1C (stereo not shown) . Reported IC50: < 100 nM

* * *

Biological target: MARK2 (Homo sapiens (Human))
Assay: KinaseProfiler off-target kinase profiling
Format: biochemical
Details: 10 μM, ATP near Km
metricName: Avg. POC (POC)

{"molecule": "Cc1c(-c2cnn(C)c2)nn(-c2ccccc2)c1NC(=O)NC1CCOc2cc(F)ccc21 (stereo not shown) [Example 12]", "metricName": "Avg. POC", "unitText": "POC", "readoutNumber": 105.5}
{"molecule": "Cc1c(-c2ccc(=O)n(C)c2)nn(-c2ccccc2)c1NC(=O)NC1CN(CC(F)(F)F)Cc2ccccc21 (stereo not shown) [Example 26]", "metricName": "Avg. POC", "unitText": "POC", "readoutNumber": 102.5}
{"molecule": "Cc1c(-c2cnn(C)c2)nn(-c2ccccc2)c1NC(=O)N[C@H]1CCCc2ccccc21 [Example 2]", "metricName": "Avg. POC", "unitText": "POC", "readoutNumber": 109}
{"molecule": "COCc1ccc2c(c1)C(NC(=O)Nc1c(C)c(-c3cnn(C)c3)nn1-c1ccccc1)COC2 (stereo not shown) [Example 32]", "metricName": "Avg. POC", "unitText": "POC", "readoutNumber": 107.5}

* * *

Molecular target: Fer (Homo sapiens (Human))
Sequence (P16591 whole entry): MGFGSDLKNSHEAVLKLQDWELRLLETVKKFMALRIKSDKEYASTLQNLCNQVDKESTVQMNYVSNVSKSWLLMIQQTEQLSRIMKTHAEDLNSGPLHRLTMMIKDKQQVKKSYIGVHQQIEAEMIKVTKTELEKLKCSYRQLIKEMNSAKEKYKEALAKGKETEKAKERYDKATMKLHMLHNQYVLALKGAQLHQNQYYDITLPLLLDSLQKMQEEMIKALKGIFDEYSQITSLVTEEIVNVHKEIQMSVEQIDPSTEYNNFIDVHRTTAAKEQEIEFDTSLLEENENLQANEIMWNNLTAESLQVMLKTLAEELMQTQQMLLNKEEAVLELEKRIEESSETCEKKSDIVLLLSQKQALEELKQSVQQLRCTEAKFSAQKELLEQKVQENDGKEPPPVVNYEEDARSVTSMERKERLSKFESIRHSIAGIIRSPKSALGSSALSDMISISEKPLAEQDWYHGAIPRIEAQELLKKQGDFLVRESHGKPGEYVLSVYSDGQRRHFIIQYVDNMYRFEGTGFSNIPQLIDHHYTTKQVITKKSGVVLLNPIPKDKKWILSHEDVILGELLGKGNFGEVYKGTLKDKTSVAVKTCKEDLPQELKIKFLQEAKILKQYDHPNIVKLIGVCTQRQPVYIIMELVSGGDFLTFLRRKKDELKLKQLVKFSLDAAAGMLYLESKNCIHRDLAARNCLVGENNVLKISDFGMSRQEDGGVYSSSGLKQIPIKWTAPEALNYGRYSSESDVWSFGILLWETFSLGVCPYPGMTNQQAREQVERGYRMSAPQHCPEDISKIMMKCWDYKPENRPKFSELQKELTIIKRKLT
Experiment: KinaseProfiler off-target kinase profiling
Assay type: biochemical
Settings: 10 μM, ATP near Km
metricName: Avg. POC (POC)

{"compound": "Cc1c(-c2cnn(C)c2)nn(-c2ccccc2)c1NC(=O)N[C@H]1CCCc2ccccc21 [Example 2]", "unitText": "POC", "Avg. POC": 110.5}
{"compound": "Cc1c(-c2ccc(=O)n(C)c2)nn(-c2ccccc2)c1NC(=O)NC1CN(CC(F)(F)F)Cc2ccccc21 (stereo not shown) [Example 26]", "unitText": "POC", "Avg. POC": 98}
{"compound": "COCc1ccc2c(c1)C(NC(=O)Nc1c(C)c(-c3cnn(C)c3)nn1-c1ccccc1)COC2 (stereo not shown) [Example 32]", "unitText": "POC", "Avg. POC": 85}
{"compound": "Cc1c(-c2cnn(C)c2)nn(-c2ccccc2)c1NC(=O)NC1CCOc2cc(F)ccc21 (stereo not shown) [Example 12]", "unitText": "POC", "Avg. POC": 100.5}

* * *

Target: UniProt:P10721
Sequence (P10721 26-976): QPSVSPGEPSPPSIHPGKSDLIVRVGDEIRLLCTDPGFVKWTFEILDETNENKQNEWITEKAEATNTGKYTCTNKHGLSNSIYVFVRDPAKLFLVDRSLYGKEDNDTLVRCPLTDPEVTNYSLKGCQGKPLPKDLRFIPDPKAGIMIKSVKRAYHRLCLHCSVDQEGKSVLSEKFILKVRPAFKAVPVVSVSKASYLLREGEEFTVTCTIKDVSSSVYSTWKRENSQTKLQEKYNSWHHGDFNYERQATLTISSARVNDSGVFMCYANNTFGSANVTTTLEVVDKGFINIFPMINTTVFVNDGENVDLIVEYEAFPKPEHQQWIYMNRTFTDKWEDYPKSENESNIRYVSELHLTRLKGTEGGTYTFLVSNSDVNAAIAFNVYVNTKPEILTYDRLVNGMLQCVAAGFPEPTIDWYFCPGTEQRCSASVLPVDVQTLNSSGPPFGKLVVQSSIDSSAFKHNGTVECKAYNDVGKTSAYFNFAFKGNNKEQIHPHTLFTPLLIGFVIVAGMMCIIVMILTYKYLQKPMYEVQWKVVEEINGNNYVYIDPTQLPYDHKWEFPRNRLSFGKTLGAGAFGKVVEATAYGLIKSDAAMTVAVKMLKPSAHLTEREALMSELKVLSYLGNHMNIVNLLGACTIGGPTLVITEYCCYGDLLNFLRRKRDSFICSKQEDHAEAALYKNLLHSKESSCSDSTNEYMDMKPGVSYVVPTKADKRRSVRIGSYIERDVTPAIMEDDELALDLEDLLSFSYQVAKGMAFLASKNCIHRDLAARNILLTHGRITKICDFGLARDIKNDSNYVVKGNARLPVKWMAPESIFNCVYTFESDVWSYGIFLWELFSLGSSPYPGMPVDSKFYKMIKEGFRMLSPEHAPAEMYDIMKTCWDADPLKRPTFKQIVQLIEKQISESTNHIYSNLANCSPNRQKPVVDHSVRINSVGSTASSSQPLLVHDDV
Assay: KinaseProfiler off-target kinase profiling
Assay type: biochemical
Details: 10 μM, ATP near Km
metricName: Avg. POC (POC)

{"molecule": "Cc1c(-c2ccc(=O)n(C)c2)nn(-c2ccccc2)c1NC(=O)NC1CN(CC(F)(F)F)Cc2ccccc21 (stereo not shown)", "Avg. POC [POC]": 94}
{"molecule": "Cc1c(-c2cnn(C)c2)nn(-c2ccccc2)c1NC(=O)NC1CCOc2cc(F)ccc21 (stereo not shown)", "Avg. POC [POC]": 102.5}
{"molecule": "COCc1ccc2c(c1)C(NC(=O)Nc1c(C)c(-c3cnn(C)c3)nn1-c1ccccc1)COC2 (stereo not shown)", "Avg. POC [POC]": 94.5}
{"molecule": "Cc1c(-c2cnn(C)c2)nn(-c2ccccc2)c1NC(=O)N[C@H]1CCCc2ccccc21", "Avg. POC [POC]": 104}

* * *

Target: Rse (Homo sapiens (Human))
Sequence (Q06418 41-890): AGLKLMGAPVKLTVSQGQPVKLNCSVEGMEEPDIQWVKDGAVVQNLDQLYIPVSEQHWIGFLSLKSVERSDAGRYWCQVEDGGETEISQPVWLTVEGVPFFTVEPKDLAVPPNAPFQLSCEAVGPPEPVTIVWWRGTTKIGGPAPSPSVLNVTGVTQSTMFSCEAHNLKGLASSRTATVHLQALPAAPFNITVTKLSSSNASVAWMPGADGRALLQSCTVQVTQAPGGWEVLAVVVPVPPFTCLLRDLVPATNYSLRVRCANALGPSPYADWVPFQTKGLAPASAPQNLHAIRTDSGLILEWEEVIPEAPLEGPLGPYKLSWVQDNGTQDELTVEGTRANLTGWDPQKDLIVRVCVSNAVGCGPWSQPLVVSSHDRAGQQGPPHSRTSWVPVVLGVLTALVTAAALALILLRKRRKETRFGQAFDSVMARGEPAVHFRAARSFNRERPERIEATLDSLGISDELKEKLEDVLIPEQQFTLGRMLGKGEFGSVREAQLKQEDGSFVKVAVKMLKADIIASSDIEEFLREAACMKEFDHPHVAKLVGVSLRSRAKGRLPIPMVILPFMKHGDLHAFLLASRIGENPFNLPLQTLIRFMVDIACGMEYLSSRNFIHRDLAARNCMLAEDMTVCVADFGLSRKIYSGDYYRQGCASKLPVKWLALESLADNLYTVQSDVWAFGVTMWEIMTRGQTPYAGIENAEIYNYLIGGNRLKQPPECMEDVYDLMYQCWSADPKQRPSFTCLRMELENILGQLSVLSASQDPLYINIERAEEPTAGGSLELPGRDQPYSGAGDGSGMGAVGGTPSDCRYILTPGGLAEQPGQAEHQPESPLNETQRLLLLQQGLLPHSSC
Assay: KinaseProfiler off-target kinase profiling
Assay type: biochemical
Conditions: 10 μM, ATP near Km
metricName: Avg. POC (POC)

{"compound": "Cc1c(-c2ccc(=O)n(C)c2)nn(-c2ccccc2)c1NC(=O)NC1CN(CC(F)(F)F)Cc2ccccc21 (stereo not shown) [Example 26]", "systemTested": "Rse (Homo sapiens (Human))", "readoutNumber": 109.5}
{"compound": "COCc1ccc2c(c1)C(NC(=O)Nc1c(C)c(-c3cnn(C)c3)nn1-c1ccccc1)COC2 (stereo not shown) [Example 32]", "systemTested": "Rse (Homo sapiens (Human))", "readoutNumber": 105}
{"compound": "Cc1c(-c2cnn(C)c2)nn(-c2ccccc2)c1NC(=O)N[C@H]1CCCc2ccccc21 [Example 2]", "systemTested": "Rse (Homo sapiens (Human))", "readoutNumber": 109}
{"compound": "Cc1c(-c2cnn(C)c2)nn(-c2ccccc2)c1NC(=O)NC1CCOc2cc(F)ccc21 (stereo not shown) [Example 12]", "systemTested": "Rse (Homo sapiens (Human))", "readoutNumber": 106}

* * *

Target: GRK7 (Homo sapiens (Human))
Sequence (Q8WTQ7 whole entry): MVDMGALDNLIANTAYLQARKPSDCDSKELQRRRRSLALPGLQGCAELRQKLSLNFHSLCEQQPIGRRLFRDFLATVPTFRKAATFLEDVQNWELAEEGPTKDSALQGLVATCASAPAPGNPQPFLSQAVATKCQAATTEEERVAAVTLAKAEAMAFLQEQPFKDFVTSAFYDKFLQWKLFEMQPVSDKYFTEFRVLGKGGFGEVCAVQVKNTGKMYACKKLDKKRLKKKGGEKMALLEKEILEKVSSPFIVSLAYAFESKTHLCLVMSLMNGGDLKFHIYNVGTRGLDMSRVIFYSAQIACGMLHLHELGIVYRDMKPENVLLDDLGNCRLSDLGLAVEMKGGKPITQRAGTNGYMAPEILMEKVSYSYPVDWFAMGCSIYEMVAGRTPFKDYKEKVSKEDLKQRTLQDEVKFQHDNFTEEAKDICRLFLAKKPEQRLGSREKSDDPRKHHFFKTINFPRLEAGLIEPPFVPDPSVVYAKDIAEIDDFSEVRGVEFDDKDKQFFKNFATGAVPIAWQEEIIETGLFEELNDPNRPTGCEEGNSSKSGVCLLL
Assay: KinaseProfiler off-target kinase profiling
Format: biochemical
Settings: 10 μM, ATP near Km
metricName: Avg. POC (POC)

{"molecule": "Cc1c(-c2cnn(C)c2)nn(-c2ccccc2)c1NC(=O)N[C@H]1CCCc2ccccc21 [Example 2]", "metricName": "Avg. POC", "readoutNumber": 108.5}
{"molecule": "COCc1ccc2c(c1)C(NC(=O)Nc1c(C)c(-c3cnn(C)c3)nn1-c1ccccc1)COC2 (stereo not shown) [Example 32]", "metricName": "Avg. POC", "readoutNumber": 117.5}
{"molecule": "Cc1c(-c2cnn(C)c2)nn(-c2ccccc2)c1NC(=O)NC1CCOc2cc(F)ccc21 (stereo not shown) [Example 12]", "metricName": "Avg. POC", "readoutNumber": 117}
{"molecule": "Cc1c(-c2ccc(=O)n(C)c2)nn(-c2ccccc2)c1NC(=O)NC1CN(CC(F)(F)F)Cc2ccccc21 (stereo not shown) [Example 26]", "metricName": "Avg. POC", "readoutNumber": 118}

* * *

Target: UniProtKB Q86V86
Assay: KinaseProfiler off-target kinase profiling
Format: biochemical
Conditions: 10 μM, ATP near Km
metricName: Avg. POC (POC)

{"compound": "Cc1c(-c2cnn(C)c2)nn(-c2ccccc2)c1NC(=O)N[C@H]1CCCc2ccccc21", "Avg. POC, POC": 98}
{"compound": "Cc1c(-c2ccc(=O)n(C)c2)nn(-c2ccccc2)c1NC(=O)NC1CN(CC(F)(F)F)Cc2ccccc21 (stereo not shown)", "Avg. POC, POC": 98}
{"compound": "COCc1ccc2c(c1)C(NC(=O)Nc1c(C)c(-c3cnn(C)c3)nn1-c1ccccc1)COC2 (stereo not shown)", "Avg. POC, POC": 112}
{"compound": "Cc1c(-c2cnn(C)c2)nn(-c2ccccc2)c1NC(=O)NC1CCOc2cc(F)ccc21 (stereo not shown)", "Avg. POC, POC": 100.5}
